# System: WT Max(13-93) synthetic (M65Nle)
# Assay procedure: PBM 8-mer E-score (E-score (rank enrichment, -0.5 to 0.5)); higher = stronger preferential binding
Over roughly 33,000 sequences, “E-score (rank enrichment, -0.5 to 0.5)” has its median near -0.0075; the highest 2% begin near 0.23. Shown is part of a subset that was picked to be rich in the highest values.
// classify(record): look up PBM 8-mer E-score in ranges bottom: < 0.06; middle: ≥ 0.06 and < 0.2; top: ≥ 0.2

Task: For CCCAATGA , which PBM 8-mer E-score bin applies?
Result: bottom

Task: For AATGTAAA , which PBM 8-mer E-score bin applies?
Result: top
